- target_system: GABAB receptor (Rattus norvegicus, UniProt O88871+Q9Z0U4)
- Sequence (O88871 41-940): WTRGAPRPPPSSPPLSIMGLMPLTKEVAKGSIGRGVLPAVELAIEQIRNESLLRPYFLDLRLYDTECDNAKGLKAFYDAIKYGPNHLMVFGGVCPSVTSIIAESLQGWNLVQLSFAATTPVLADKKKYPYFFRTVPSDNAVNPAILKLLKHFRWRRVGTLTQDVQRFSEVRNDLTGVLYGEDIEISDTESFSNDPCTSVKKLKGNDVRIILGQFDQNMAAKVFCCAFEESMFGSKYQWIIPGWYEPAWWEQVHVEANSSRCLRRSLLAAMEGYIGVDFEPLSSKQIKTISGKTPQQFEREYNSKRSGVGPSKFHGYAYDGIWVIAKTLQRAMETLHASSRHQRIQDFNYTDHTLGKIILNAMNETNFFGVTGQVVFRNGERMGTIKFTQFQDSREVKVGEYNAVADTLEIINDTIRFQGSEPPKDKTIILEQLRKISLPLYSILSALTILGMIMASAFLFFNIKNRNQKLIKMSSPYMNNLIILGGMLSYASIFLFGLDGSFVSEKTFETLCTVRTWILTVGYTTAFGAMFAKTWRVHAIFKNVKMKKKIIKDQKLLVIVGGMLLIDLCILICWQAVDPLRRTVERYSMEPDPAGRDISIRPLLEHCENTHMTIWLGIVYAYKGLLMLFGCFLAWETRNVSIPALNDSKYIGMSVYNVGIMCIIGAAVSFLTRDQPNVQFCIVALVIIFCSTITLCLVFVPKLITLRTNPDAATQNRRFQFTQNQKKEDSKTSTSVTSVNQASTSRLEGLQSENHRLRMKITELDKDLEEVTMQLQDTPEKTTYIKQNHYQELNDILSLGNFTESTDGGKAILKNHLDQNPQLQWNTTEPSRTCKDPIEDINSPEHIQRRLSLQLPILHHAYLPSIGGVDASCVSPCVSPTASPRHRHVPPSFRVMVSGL
- Sequence (Q9Z0U4 17-960 limits assumed): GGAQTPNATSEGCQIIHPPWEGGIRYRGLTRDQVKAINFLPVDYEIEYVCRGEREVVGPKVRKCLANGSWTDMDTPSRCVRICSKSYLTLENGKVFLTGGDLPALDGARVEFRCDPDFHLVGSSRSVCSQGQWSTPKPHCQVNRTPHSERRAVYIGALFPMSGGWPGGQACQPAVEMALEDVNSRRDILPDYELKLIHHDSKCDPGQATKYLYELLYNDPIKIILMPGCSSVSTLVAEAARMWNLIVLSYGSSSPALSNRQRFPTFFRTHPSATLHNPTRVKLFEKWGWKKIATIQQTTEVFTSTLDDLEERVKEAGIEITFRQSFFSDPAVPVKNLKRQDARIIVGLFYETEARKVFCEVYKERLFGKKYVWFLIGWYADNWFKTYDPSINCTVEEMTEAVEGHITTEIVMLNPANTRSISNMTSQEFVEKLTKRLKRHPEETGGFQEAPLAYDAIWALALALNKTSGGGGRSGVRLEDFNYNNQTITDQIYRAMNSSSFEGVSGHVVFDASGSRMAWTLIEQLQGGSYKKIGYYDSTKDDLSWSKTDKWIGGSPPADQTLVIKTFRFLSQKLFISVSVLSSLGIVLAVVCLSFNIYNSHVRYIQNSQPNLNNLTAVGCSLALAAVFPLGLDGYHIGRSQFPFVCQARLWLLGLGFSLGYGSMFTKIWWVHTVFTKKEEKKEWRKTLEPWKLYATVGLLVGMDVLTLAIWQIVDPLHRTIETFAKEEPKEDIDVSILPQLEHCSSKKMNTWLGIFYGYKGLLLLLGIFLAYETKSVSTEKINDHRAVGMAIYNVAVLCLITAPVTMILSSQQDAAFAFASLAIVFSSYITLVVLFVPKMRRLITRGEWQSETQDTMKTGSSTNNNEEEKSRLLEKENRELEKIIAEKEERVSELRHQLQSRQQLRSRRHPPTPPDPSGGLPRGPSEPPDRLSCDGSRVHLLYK
- assay_name: In vitro [35S]GTPγS binding assay in rat cortical membranes
- protocol_conditions: PAM EC50, [35S]GTPγS binding, read-out: In vitro PAM potency
pEC50: −log10 of the molar value.
measurement_type: pEC50

{"columns": ["compound", "target_system", "pEC50"],
 "data": [
  ["CC(=O)N1CCC[C@](C)(c2cc(C)nc3cc([C@H]4CC[C@H](C(F)(F)F)CC4)nn23)C1", "GABAB receptor (Rattus norvegicus, UniProt O88871+Q9Z0U4)", "5.00 to 6.00"],
  ["Cc1cc([C@@H]2CN(C=O)CC[C@@H]2C)n2nc([C@H]3CC[C@H](C(F)(F)F)CC3)cc2n1 (single isomer, unassigned) [Example 8]", "GABAB receptor (Rattus norvegicus, UniProt O88871+Q9Z0U4)", "5.00 to 6.00"],
  ["COCCOC(=O)N1CCO[C@@H](c2cc(C)nc3cc([C@H]4CC[C@H](C(F)(F)F)CC4)nn23)C1", "GABAB receptor (Rattus norvegicus, UniProt O88871+Q9Z0U4)", "6.00 to 7.00"]
]}

Next compound, please.
## Task Please report the recorded pEC50 for CC(=O)N1CCC(C)C(c2cc(C)nc3c(F)c(C4CCC(C(F)(F)F)CC4)nn23)C1 (single isomer, unassigned) .
## Result 6.00 to 7.00

====

- target_system: GABAB receptor (Rattus norvegicus, UniProt O88871+Q9Z0U4)
- Construct: from tissue; host or cells: rat brain cortex membranes
- assay_name: In vitro [35S]GTPγS binding assay in rat cortical membranes
- Type: biochemical
- protocol_conditions: PAM EC50, [35S]GTPγS binding, read-out: In vitro PAM potency
- Description: In Vitro [^35S]GTPγS Binding Assay in Rat Cortical Membranes Cortices of freshly harvested rat brains were dissected on an ice-cold surface and homogenized by a glass Dounce homogeniser immediately in ice-cold buffer containing 50 mM Tris, 5 mM MgCl2 and 1 mM EDTA (pH=7.6). […] Nonspecific binding was determined in the presence of 10 μM GTPγS; basal binding was determined in the presence of buffer only. […] In Table 1 compounds of this invention measured in the [^35S]GTPγS binding assay are listed.
pEC50: −log10 of the molar value.
Examples of compounds with documented pEC50 follow.

## Task Please report the recorded pEC50 for Cc1cc([C@H]2CN(C(=O)c3nnc(C)o3)CCO2)n2nc([C@H]3CC[C@H](C(F)(F)F)CC3)cc2n1 .
## Result 6.00 to 7.00

## Task Please report the recorded pEC50 for COC(=O)N1C[C@@H](c2cc(C)nc3cc([C@H]4CC[C@H](C(F)(F)F)CC4)nn23)OCC1(C)C (single isomer, unassigned) .
## Result 5.00 to 6.00

## Task Please report the recorded pEC50 for COC(=O)N1CCO[C@@H](c2cc(C)nc3cc([C@H]4CC[C@H](C(C)(C)C)CC4)nn23)C1 .
## Result > 7.00

## Task Please report the recorded pEC50 for CCOC(=O)N1CCC[C@H](c2cc(C)nc3cc([C@H]4CC[C@H](C(F)(F)F)CC4)nn23)[C@@H]1C .
## Result 5.00 to 6.00

## Task Please report the recorded pEC50 for Cc1cc([C@@H]2CCCN(C(=O)C3CC3)C2)n2nc([C@H]3CC[C@H](C(F)(F)F)CC3)cc2n1 .
## Result 6.00 to 7.00

## Task Please report the recorded pEC50 for Cc1cc(C2CN(C3COC3)CCC2(C)C)n2nc([C@H]3CC[C@H](C(F)(F)F)CC3)cc2n1 (stereo partly drawn) .
## Result 6.00 to 7.00

Where do these numbers come from? They come from patent US12473293B2.
